# experimental_target: D(3) dopamine receptor (Homo sapiens, UniProt P35462)
# Sequence (P35462 whole entry): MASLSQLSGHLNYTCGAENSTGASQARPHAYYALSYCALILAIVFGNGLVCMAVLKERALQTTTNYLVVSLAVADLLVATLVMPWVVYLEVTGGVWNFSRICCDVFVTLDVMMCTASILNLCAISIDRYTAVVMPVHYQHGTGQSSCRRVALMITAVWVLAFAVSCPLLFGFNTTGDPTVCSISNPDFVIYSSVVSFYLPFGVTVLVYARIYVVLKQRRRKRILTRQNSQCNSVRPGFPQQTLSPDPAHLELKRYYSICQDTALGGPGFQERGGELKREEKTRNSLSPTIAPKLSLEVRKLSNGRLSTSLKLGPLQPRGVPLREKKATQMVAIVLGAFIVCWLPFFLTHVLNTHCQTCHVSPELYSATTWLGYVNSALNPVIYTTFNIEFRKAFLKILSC
One threshold, 1000 nM, splits the recorded Ki values: lower ones are Condition met, equal or higher ones are Condition not met.

Solved entries (count: 5):
compound | experimental_target | group
CN[C@H]1c2ccc3c(ccn3S(=O)(=O)c3ccccc3)c2[C@@H]1CCO (relative stereo) | D(3) dopamine receptor (Homo sapiens, UniProt P35462) | Condition not met
CN[C@H]1c2cc3c(ccn3S(=O)(=O)c3ccccc3)cc2[C@@H]1CCO (relative stereo) | D(3) dopamine receptor (Homo sapiens, UniProt P35462) | Condition met
O=S(=O)(c1ccccc1)n1ccc2cc3c(cc21)[C@H]1CCNCC[C@@H]31 | D(3) dopamine receptor (Homo sapiens, UniProt P35462) | Condition not met
CNCC1Cc2ccc3c(ccn3S(=O)(=O)c3ccccc3)c21 (centres undefined) | D(3) dopamine receptor (Homo sapiens, UniProt P35462) | Condition not met
CN[C@H]1c2cc3ccn(S(=O)(=O)c4ccccc4)c3cc2[C@H]1CCO (relative stereo) | D(3) dopamine receptor (Homo sapiens, UniProt P35462) | Condition not met

Please state whether Ki is below 1000 nM for CN(C)[C@@H]1c2cc3c(ccn3S(=O)(=O)c3ccccc3)cc2[C@@H]1CCO (relative stereo)
Condition met

Now the same for CN(C)[C@@H]1c2cc3ccn(S(=O)(=O)c4ccccc4)c3cc2[C@H]1CCO (relative stereo)
Condition not met

Attribution: ChEMBL document CHEMBL3871306
